# ASSAY TARGET: F508delCFTR (Homo sapiens, UniProt P13569, DEL508-508)
# Construct: expressed in transfected cells; host or cells: CFBE41o- human lung-derived epithelial cells (CFBE4lo-F508delCFTR-HRP), doxycycline-inducible
# Sequence (P13569 with tags, fused parts or gaps DEL508-508): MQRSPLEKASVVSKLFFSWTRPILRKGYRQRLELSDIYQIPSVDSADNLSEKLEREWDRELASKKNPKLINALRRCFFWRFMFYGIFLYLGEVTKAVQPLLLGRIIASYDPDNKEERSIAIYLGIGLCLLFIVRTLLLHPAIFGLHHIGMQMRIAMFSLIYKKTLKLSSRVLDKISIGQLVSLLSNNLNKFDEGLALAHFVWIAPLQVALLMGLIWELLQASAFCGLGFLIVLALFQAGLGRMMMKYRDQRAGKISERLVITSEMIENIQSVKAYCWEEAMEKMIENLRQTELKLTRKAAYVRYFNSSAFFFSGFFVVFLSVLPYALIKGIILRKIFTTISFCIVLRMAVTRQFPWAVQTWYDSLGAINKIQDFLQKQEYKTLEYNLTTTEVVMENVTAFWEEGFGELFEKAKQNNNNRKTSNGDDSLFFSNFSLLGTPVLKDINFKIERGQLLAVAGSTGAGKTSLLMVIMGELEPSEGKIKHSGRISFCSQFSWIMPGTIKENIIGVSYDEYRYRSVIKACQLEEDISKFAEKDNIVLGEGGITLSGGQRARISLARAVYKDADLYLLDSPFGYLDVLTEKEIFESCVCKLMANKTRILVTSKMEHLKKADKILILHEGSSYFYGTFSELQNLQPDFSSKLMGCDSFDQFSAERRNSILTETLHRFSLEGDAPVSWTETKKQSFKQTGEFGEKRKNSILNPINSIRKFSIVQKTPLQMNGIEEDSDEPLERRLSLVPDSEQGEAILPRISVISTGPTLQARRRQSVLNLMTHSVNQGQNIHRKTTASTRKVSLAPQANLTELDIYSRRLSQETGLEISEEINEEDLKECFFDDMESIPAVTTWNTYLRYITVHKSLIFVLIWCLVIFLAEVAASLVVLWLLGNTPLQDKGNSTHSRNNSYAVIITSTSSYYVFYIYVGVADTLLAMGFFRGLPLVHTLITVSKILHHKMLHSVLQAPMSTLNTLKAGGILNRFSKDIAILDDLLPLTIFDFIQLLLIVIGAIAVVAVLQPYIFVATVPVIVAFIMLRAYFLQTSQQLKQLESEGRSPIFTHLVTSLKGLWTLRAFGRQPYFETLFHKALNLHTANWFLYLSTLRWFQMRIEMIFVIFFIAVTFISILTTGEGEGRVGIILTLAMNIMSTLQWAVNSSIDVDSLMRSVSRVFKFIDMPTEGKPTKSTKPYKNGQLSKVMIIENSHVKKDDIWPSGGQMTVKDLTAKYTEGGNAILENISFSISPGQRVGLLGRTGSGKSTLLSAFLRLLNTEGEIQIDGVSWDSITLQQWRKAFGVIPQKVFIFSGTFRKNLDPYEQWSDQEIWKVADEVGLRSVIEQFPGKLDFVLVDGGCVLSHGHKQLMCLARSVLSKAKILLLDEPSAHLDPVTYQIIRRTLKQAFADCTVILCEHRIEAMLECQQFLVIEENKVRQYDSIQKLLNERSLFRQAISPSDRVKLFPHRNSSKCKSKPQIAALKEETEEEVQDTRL
# ASSAY PROTOCOL: Cell Surface Expression-Horse Radish Peroxidase (CSE-HRP) Assay;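 as to Maximum % activity (without co-corrector): percent of the 2 µM on-plate positive control corrector response above DMSO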
# Type: cell-based
# CONDITION: CSE-HRP; without co-corrector; maximum at any tested concentration, normalized to on-plate positive control; read-out: Maximum % activity (without co-corrector)
ASSAY READOUT: Emax

Reference set, count: 2
| MOLECULE | Emax |
| --- | --- |
| COc1ncc(C(F)(F)F)cc1CN[C@H]1[C@H](C(C)(C)C)[C@@H](C(=O)O)N(C(=O)C2CC2)[C@H]1c1ccccc1C(C)C [Example I-271] | > 200% |
| COc1ncc(C(F)(F)F)cc1CN[C@H]1[C@H](C(C)(C)C)[C@@H](C(=O)O)N(C(=O)[C@H](OC)c2ccccc2)[C@H]1c1ccccc1 [II-83] | > 200% |

Prompt: Entry under review: COc1ccc(C(C)(C)C)cc1CN[C@H]1[C@H](C(C)(C)C)[C@@H](C(=O)O)N(C(=O)c2c(C)nn(-c3ccccc3)c2C)[C@H]1c1ccccc1 [II-229] . Reported Emax?
Completion: > 200%

Prompt: Entry under review: COc1cc(F)ccc1CN[C@H]1[C@H](C(C)(C)C)[C@@H](C(=O)O)N(C(=O)C2CCCCC2)[C@H]1c1ccccc1 [II-118] . Reported Emax?
Completion: 100 to 200%

Prompt: Entry under review: CC(C)Oc1ccccc1CN[C@@H]1[C@@H](C(C)(C)C)[C@H](C(=O)O)N(C(=O)C2CCCCC2)[C@@H]1c1ccccc1 (racemic) [II-4] . Reported Emax?
Completion: 100 to 200%

Prompt: Entry under review: COc1ccc(C(F)(F)F)cc1CN[C@@H]1[C@@H](C(C)(C)C)[C@H](C(=O)O)N(C(=O)[C@H]2CCCO[C@H]2C)[C@@H]1c1ccccc1 (racemic) [II-35] . Reported Emax?
Completion: > 200%

---

# ASSAY TARGET: F508delCFTR (Homo sapiens, UniProt P13569, DEL508-508)
# Construct: expressed in transfected cells; host or cells: CFBE41o- human lung-derived epithelial cells (CFBE4lo-F508delCFTR-HRP), doxycycline-inducible
# ASSAY PROTOCOL: Cell Surface Expression-Horse Radish Peroxidase (CSE-HRP) Assay;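 as to Maximum % activity (with co-corrector): co-corrector and positive control are both the same reference corrector at 2 µM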
# Assay type: cell-based
# CONDITION: with co-corrector (2 μM of 3-[(2R,4R)-4-({[1-(2,2-difluoro-1,3-benzodioxol-5-yl)cyclopropyl]carbonyl}amino)-7-methoxy-3,4-dihydro-2H-chromen-2-yl]benzoic acid); maximum at any tested concentration, normalized to on-plate positive control
ASSAY READOUT: Maximum % activity (with co-corrector)

Reference set, count: 5
| COMPOUND | ASSAY READOUT | RESULT VALUE |
| --- | --- | --- |
| Cc1cc(C(F)(F)F)cc(N[C@@H]2[C@@H](C(C)(C)C)[C@H](C(=O)O)N(C(=O)C3CCCCC3)[C@@H]2c2cccnc2N(C)C)n1 (racemic) | Maximum % activity (with co-corrector) | ++ (≥150 and <350) |
| CC(C)(C)[C@@H]1[C@@H](Nc2cc(C(F)(F)F)cc[n+]2[O-])[C@@H](c2ccccc2)N(C(=O)C2CCCCC2)[C@H]1C(=O)O (racemic) | Maximum % activity (with co-corrector) | ++ (≥150 and <350) |
| Cc1cc(C(F)(F)F)cc(N[C@@H]2[C@@H](C(C)(C)C)[C@H](C(=O)O)N(C(=O)C3CCCCC3)[C@@H]2c2ccccc2)[n+]1[O-] (racemic) | Maximum % activity (with co-corrector) | ++ (≥150 and <350) |
| COc1ccc(C(C)(C)C)cc1CN[C@H]1[C@H](C(C)(C)C)[C@@H](C(=O)O)N(C(=O)C2CCCCO2)[C@H]1c1cccnc1OC(F)F (single isomer, unassigned) [II-489] | Maximum % activity (with co-corrector) | +++ (≥350) |
| COc1cc(C(F)(F)F)ccc1CN[C@H]1[C@H](C(C)(C)C)[C@@H](C(=O)O)N(C(=O)[C@@H]2CCCO2)[C@H]1c1cccnc1C1CC1 | Maximum % activity (with co-corrector) | +++ (≥350) |

# evaluate next
Prompt: Entry under review: `COc1ccc(C(C)(C)C)cc1CN[C@H]1[C@H](C(C)(C)C)[C@@H](C(=O)O)N(C(=O)[C@H]2C[C@@H]3CC[C@H]2O3)[C@H]1c1ccccc1` . Reported Maximum % activity (with co-corrector)?
Completion: +++ (≥350)

---

# ASSAY TARGET: F508delCFTR (Homo sapiens, UniProt P13569, DEL508-508)
# Construct: expressed in transfected cells; host or cells: CFBE41o- human lung-derived epithelial cells (CFBE4lo-F508delCFTR-HRP), doxycycline-inducible
# ASSAY PROTOCOL: Cell Surface Expression-Horse Radish Peroxidase (CSE-HRP) Assay;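 as to Maximum % activity (with co-corrector): co-corrector and positive control are both the same reference corrector at 2 µM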
# Type: cell-based
# CONDITION: with co-corrector (2 μM); maximum at any tested concentration, normalized to on-plate positive control
ASSAY READOUT: Maximum % activity (with co-corrector)

| COMPOUND | ASSAY TARGET | RESULT VALUE |
| --- | --- | --- |
| COc1ncc(C2CCC2)cc1CN[C@H]1[C@H](C(C)(C)C)[C@@H](C(=O)O)N(C(=O)[C@@H]2CCCO2)[C@H]1c1ccccc1Cl | F508delCFTR (Homo sapiens, UniProt P13569, DEL508-508) | +++ (≥350) |
| COc1ccc(C(C)(C)C)cc1CN[C@H]1[C@H](C(C)(C)C)[C@@H](C(=O)O)N(C(=O)C2CC3CC3C2)[C@H]1c1ccccc1 (stereo partly drawn) | F508delCFTR (Homo sapiens, UniProt P13569, DEL508-508) | +++ (≥350) |
| COc1ccc(C2(C)CCC2)cc1CN[C@H]1[C@H](C(C)(C)C)[C@@H](C(=O)O)N(C(=O)[C@@H]2CCCCO2)[C@H]1c1cccnc1OC | F508delCFTR (Homo sapiens, UniProt P13569, DEL508-508) | +++ (≥350) |

---

EC50: recorded values
# ASSAY TARGET: F508delCFTR (Homo sapiens, UniProt P13569, DEL508-508)
# Construct: expressed in transfected cells; host or cells: CFBE41o- human lung-derived epithelial cells (CFBE4lo-F508delCFTR-HRP), doxycycline-inducible
# ASSAY PROTOCOL: Cell Surface Expression-Horse Radish Peroxidase (CSE-HRP) Assay
# Assay type: cell-based
# CONDITION: with co-corrector (2 μM of 3-[(2R,4R)-4-({[1-(2,2-difluoro-1,3-benzodioxol-5-yl)cyclopropyl]carbonyl}amino)-7-methoxy-3,4-dihydro-2H-chromen-2-yl]benzoic acid); read-out: EC50 (with co-corrector)

| STRUCTURE SMILES | RESULT VALUE |
| --- | --- |
| COc1ncc(C2CCC2)cc1CN[C@H]1[C@H](C(C)(C)C)[C@@H](C(=O)O)N(C(=O)[C@@H]2CCCC(F)(F)C2)[C@H]1c1ccccc1 | < 1000 nM |

Prompt: Entry under review: `CO[C@@H](C(=O)N1[C@H](c2ccccc2)[C@H](Nc2cc(C(F)(F)F)cc(C)n2)[C@@H](C(C)(C)C)[C@@H]1C(=O)O)c1ccccc1` . Reported EC50?
Completion: 1000 to 10000 nM

Prompt: Entry under review: `COc1ccc(C(C)(C)C)cc1CN[C@H]1[C@H](C(C)(C)C)[C@@H](C(=O)O)N(C(=O)c2cn(C)cc(C)c2=O)[C@H]1c1ccccc1` . Reported EC50?
Completion: > 10000 nM

Prompt: Entry under review: `COc1ncc(C2CCC2)cc1CN[C@H]1[C@H](C(C)(C)C)[C@@H](C(=O)O)N(C(=O)C2CCCCC2)[C@H]1c1ccccc1C` . Reported EC50?
Completion: < 1000 nM

Prompt: Entry under review: `COc1ncc(C2CCCC2)cc1CN[C@H]1[C@H](C(C)(C)C)[C@@H](C(=O)O)N(C(=O)C2CCCCC2)[C@H]1c1ccccc1` . Reported EC50?
Completion: < 1000 nM

Prompt: Entry under review: `COc1ccc(C(C)(C)C)cc1CN[C@H]1[C@H](C(C)(C)C)[C@@H](C(=O)O)N(S(=O)(=O)c2ccccc2)[C@H]1c1ccccc1` . Reported EC50?
Completion: 1000 to 10000 nM

---

# ASSAY TARGET: F508delCFTR (Homo sapiens, UniProt P13569, DEL508-508)
# Construct: expressed in transfected cells; host or cells: CFBE41o- human lung-derived epithelial cells (CFBE4lo-F508delCFTR-HRP), doxycycline-inducible
# ASSAY PROTOCOL: Cell Surface Expression-Horse Radish Peroxidase (CSE-HRP) Assay;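 as to Maximum % activity (without co-corrector): percent of the 2 µM on-plate positive control corrector response above DMSO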
# Format: cell-based
# CONDITION: without co-corrector; maximum at any tested concentration, normalized to on-plate positive control; read-out: Maximum % activity (without co-corrector)
ASSAY READOUT: Emax

Prompt: Entry under review: COc1ccc(C(F)(F)F)cc1CN[C@H]1[C@H](C(C)(C)OC)[C@@H](C(=O)O)N(C(=O)OC(C)C)[C@H]1c1ccccc1 [Example I-174] . Reported Emax?
Completion: > 200%
